Ref: patent US5225528A

Target System: uterine OT receptors (Rattus norvegicus, UniProt P70536)
Construct: from tissue; host or cells: uterus of DES-treated rats, crude membranes
Sequence (P70536 whole entry): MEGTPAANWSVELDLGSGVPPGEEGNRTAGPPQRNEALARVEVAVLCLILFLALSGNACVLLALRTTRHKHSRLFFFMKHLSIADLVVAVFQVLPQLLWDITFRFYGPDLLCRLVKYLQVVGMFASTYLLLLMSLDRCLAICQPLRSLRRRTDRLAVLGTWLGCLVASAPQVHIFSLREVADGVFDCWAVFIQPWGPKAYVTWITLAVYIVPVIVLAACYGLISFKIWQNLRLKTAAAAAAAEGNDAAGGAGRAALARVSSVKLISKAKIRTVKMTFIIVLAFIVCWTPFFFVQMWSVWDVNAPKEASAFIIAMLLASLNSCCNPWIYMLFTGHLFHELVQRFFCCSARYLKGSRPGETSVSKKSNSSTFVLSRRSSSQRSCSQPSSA
Test Description: [^3 H]OT binding to uterine OT receptors, crude membrane preparation of uteri from DES-treated rats
Cond: rat uterus membranes, 1 nM [^3 H]OT; read-out: Receptor Binding Results IC50 (nM) [^3 H]OT
Numbered stars: 1 amine (or outer) side, 2 acyl side, 3 side chain; on linkers, the order of the positions; unused ones are H or OH. Square brackets hold non-standard residues; d marks the D form. Peptide text beside a SMILES is read from it. * marks the point of attachment. X2 = O=C(OCc1ccccc1)N1CCN([*:1])[C@H](C(=O)[*:2])C1; d(hPhe) = N[C@H](CCc1ccccc1)C(=O)O; X1 = O=C([C@H]1C=CCCN1[*:1])[*:2]; X6 = O=C([C@H]1CCCNN1[*:1])[*:2]; dNMeF = CN[C@H](Cc1ccccc1)C(=O)O; Pip = O=C(O)[C@@H]1CCCCN1; dPip = O=C(O)[C@H]1CCCCN1; Orn = NCCC[C@H](N)C(=O)O; Boc = CC(C)(C)OC(=O)*
Measured IC50, listed per entry for reference.

| Compound | Output Unit | IC50 |
| --- | --- | --- |
| CC[C@H](C)[C@@H]1NC(=O)[C@@H](Cc2c[nH]c3ccccc23)NC(=O)[C@@H]2CCCN2C(=O)[C@@H](Cc2c[nH]cn2)NC(=O)[C@H](CCCNC(=O)OC(C)(C)C)NC(=O)[C@H]2CCCNN2C1=O [Example 128] (cyclo(I[X6][Orn](Boc)[dH]P[dW])) | nM | 118 |
| CC[C@H](C)[C@@H]1NC(=O)[C@@H](Cc2ccccc2)NC(=O)[C@@H]2CCCN2C(=O)[C@@H](Cc2ccccc2)N(C)C(=O)[C@H]2C=CCCN2C(=O)[C@H]2CCCCN2C1=O [Example 22] (cyclo(I[dPip][X1][dNMeF]P[dF])) | nM | 2400 |
| CC[C@H](C)[C@@H]1NC(=O)[C@@H](Cc2ccccc2)NC(=O)[C@@H]2CCCN2C(=O)[C@@H](Cc2c[nH]cn2)NC(=O)[C@@H]2CN(C(=O)OCc3ccccc3)CCN2C(=O)[C@H]2CCCCN2C1=O [Example 81] (cyclo(I[dPip][X2][dH]P[dF])) | nM | 77 |
| CC[C@H](C)[C@@H]1NC(=O)[C@@H](CCc2ccccc2)NC(=O)[C@@H]2CCCN2C(=O)[C@@H](Cc2ccccc2)N(C)C(=O)[C@@H]2CCCCN2C(=O)[C@H]2CCCCN2C1=O [Example 165] (cyclo(I[dPip][Pip][dNMeF]P[d(hPhe)])) | nM | 150 |

###

Target System: uterine OT receptors (Rattus norvegicus, UniProt P70536)
Construct: from tissue; host or cells: uterus of DES-treated rats, crude membranes
Test Description: [^3 H]OT binding to uterine OT receptors, crude membrane preparation of uteri from DES-treated rats
Cond: 1 h; @ 1,000 (nM); read-out: [^3 H]OT: percent inhibition of radioligand at the given concentration
Numbered stars: 1 amine (or outer) side, 2 acyl side, 3 side chain; on linkers, the order of the positions; unused ones are H or OH. Square brackets hold non-standard residues; d marks the D form. Peptide text beside a SMILES is read from it. X2 = O=C(OCc1ccccc1)N1CCN([*:1])[C@H](C(=O)[*:2])C1; X4 = O=C([C@@H](Cc1cn(COCc2ccccc2)cn1)N[*:1])[*:2]; dHis(π-Me) = Cn1cncc1C[C@@H](N)C(=O)O; Pip(4-aza) = O=C(O)[C@@H]1CNCCN1; dPip = O=C(O)[C@H]1CCCCN1
Measured inhibition at 1 µM, listed per entry for reference.

| Molecule | Target System | inhibition at 1 µM [%] |
| --- | --- | --- |
| CC[C@H](C)[C@@H]1NC(=O)[C@@H](Cc2ccccc2)NC(=O)[C@@H]2CCCN2C(=O)[C@@H](Cc2ccccc2)NC(=O)[C@@H]2CN(C(=O)OCc3ccccc3)CCN2C(=O)[C@H]2CCCN2C1=O [Example 163] (cyclo([dF]I[dP][X2][dF]P)) | uterine OT receptors (Rattus norvegicus, UniProt P70536) | 49 |
| CC[C@H](C)[C@@H]1NC(=O)[C@@H](Cc2ccccc2)NC(=O)[C@@H]2CCCN2C(=O)[C@@H](Cc2cn(COCc3ccccc3)cn2)NC(=O)[C@@H]2CNCCN2C(=O)[C@H]2CCCCN2C1=O [Example 176] (cyclo([dF]I[dPip][Pip(4-aza)][X4]P)) | uterine OT receptors (Rattus norvegicus, UniProt P70536) | 80 |
| CC[C@H](C)[C@@H]1NC(=O)[C@@H](Cc2c[nH]c3ccccc23)NC(=O)[C@@H]2CCCN2C(=O)[C@@H](Cc2c[nH]cn2)NC(=O)[C@H](Cc2c[nH]cn2)NC(=O)[C@H]2CCCN2C1=O [Example 94] (cyclo(H[dH]P[dW]I[dP])) | uterine OT receptors (Rattus norvegicus, UniProt P70536) | 64 |
| CC[C@H](C)[C@@H]1NC(=O)[C@@H](Cc2ccccc2)NC(=O)[C@@H]2CCCN2C(=O)[C@@H](Cc2cncn2C)NC(=O)[C@@H]2CNCCN2C(=O)[C@H]2CCCCN2C1=O [Example 178] (cyclo(I[dPip][Pip(4-aza)][dHis(π-Me)]P[dF])) | uterine OT receptors (Rattus norvegicus, UniProt P70536) | 77 |

###

Target System: AVP-V1 sites (Rattus norvegicus, UniProt P30560)
Construct: crude membrane preparation of male rat liver (AVP-V1 sites); from tissue; host or cells: male rat liver, crude membranes
Sequence (P30560 whole entry): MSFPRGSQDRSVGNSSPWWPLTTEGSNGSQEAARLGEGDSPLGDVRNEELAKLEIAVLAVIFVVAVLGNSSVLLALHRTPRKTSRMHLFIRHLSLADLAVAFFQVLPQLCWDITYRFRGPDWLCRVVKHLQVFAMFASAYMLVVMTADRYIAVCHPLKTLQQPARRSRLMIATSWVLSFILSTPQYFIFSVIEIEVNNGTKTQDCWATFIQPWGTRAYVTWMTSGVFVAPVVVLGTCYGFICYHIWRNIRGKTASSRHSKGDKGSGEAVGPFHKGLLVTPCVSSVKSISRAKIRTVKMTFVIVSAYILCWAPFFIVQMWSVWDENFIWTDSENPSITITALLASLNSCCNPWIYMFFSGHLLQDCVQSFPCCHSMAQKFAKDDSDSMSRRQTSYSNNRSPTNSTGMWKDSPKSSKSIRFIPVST
Test Description: [^3 H]AVP binding to crude membrane preparation of male rat liver (AVP-V1 sites)
Cond: Receptor Binding Results IC50 (nM) [^3 H]-AVP-V1
Numbered stars: 1 amine (or outer) side, 2 acyl side, 3 side chain; on linkers, the order of the positions; unused ones are H or OH. Square brackets hold non-standard residues; d marks the D form. Peptide text beside a SMILES is read from it. * marks the point of attachment. X3 = O=C([C@@H]1C=CCCN1[*:1])[*:2]; dNMeF = CN[C@H](Cc1ccccc1)C(=O)O; Pip = O=C(O)[C@@H]1CCCCN1; dPip = O=C(O)[C@H]1CCCCN1; ClZ = O=C(OCc1ccccc1Cl)*; Orn = NCCC[C@H](N)C(=O)O; Cbz = O=C(OCc1ccccc1)*; Boc = CC(C)(C)OC(=O)*; Dha = C=C(N)C(=O)O; Bn = c1ccc(C*)cc1
Quantity Measured: IC50

| Molecule | Obs Value |
| --- | --- |
| C=C1NC(=O)[C@H]2CCCN2C(=O)[C@H]([C@@H](C)CC)NC(=O)[C@@H](Cc2ccccc2)NC(=O)[C@@H]2CCCN2C(=O)[C@@H](Cc2ccccc2)N(C)C1=O [Example 117] (cyclo([Dha][dNMeF]P[dF]I[dP])) | > 10000 nM |
| CC[C@H](C)[C@@H]1NC(=O)[C@@H](Cc2ccc(OCc3ccccc3)cc2)NC(=O)[C@@H]2CCCN2C(=O)[C@@H](Cc2ccccc2)N(C)C(=O)[C@H](CCCCN)NC(=O)[C@H]2CCCCN2C1=O [Example 145] (cyclo(I[dPip]K[dNMeF]P[dY](Bn))) | > 10000 nM |
| CC[C@H](C)[C@@H]1NC(=O)[C@@H](Cc2ccccc2)NC(=O)[C@@H]2CCCN2C(=O)[C@@H](Cc2ccccc2)N(C)C(=O)[C@@H]2C=CCCN2C(=O)[C@H]2CCCCN2C1=O [Example 23] (cyclo(I[dPip][X3][dNMeF]P[dF])) | > 10000 nM |
| CC[C@H](C)[C@@H]1NC(=O)[C@@H](Cc2ccc(OC)cc2)NC(=O)[C@@H]2CCCN2C(=O)[C@@H](Cc2ccccc2)N(C)C(=O)[C@H](CCCCNC(=O)OC(C)(C)C)NC(=O)[C@H]2CCCCN2C1=O [Example 149] (cyclo(I[dPip]K(Boc)[dNMeF]P[dY](Me))) | > 10000 nM |
| CC[C@H](C)[C@@H]1NC(=O)[C@@H](Cc2c[nH]c3ccccc23)NC(=O)[C@@H]2CCCN2C(=O)[C@@H](Cc2ccccc2)N(C)C(=O)[C@H](CCCCNC(=O)OCc2ccccc2)NC(=O)[C@H]2CCCCN2C1=O [Example 35] (cyclo(I[dPip]K(Cbz)[dNMeF]P[dW])) | 10000 nM |
| CC[C@H](C)[C@@H]1NC(=O)[C@@H](Cc2c[nH]c3ccccc23)NC(=O)[C@@H]2CCCN2C(=O)[C@@H](Cc2c[nH]c3ccccc23)NC(=O)[C@H](CCCNC(=O)OCc2ccccc2)NC(=O)[C@H]2CCCCN2C1=O [Example 36] (cyclo(I[dPip][Orn](Cbz)[dW]P[dW])) | > 10000 nM |
| CC[C@H](C)[C@@H]1NC(=O)[C@@H](Cc2ccccc2)NC(=O)[C@@H]2CCCN2C(=O)[C@@H](Cc2ccccc2)NC(=O)[C@H](CC(N)=O)NC(=O)[C@H]([C@@H](C)O)NC1=O [Example 98] (cyclo(ITN[dF]P[dF])) | > 10000 nM |
| CC[C@H](C)[C@@H]1NC(=O)[C@@H](Cc2ccccc2)NC(=O)[C@@H]2CCCN2C(=O)[C@@H](CCCCNC(=O)OCc2ccccc2Cl)NC(=O)[C@@H]2CCCCN2C(=O)[C@H]2CCCCN2C1=O [Example 26] (cyclo(I[dPip][Pip][dK](ClZ)P[dF])) | 10000 nM |
